All values here come from ChEMBL document CHEMBL1201862.

test system: 786-0; experiment: NCI tumour cell line growth inhibition, 48 h
Calls of active or inactive are those of the source. Cut-off read from the data, not from the text of the source: active = GI50 up to about 1.1 µM and inactive = higher.
Outcome measure: GI50

In: For the record "Oc1ccccc1/C=N/c1nc2cc3sc(/N=C/c4ccccc4O)nc3cc2s1" , what value of GI50 is listed for 786-0?
Out: > 81.1 µM (inactive)

In: // repeat for "O=C(/C=C/c1ccc(O)c(O)c1)c1cc(O)cc(O)c1" and report
Out: 13.7 µM (inactive)

In: Then what about the compound COC(=O)C1=CON2C3CC4CC(C3)CC(C4)C12C (centres undefined) ?
Out: > 100 µM (inactive)

In: What do you have for "COC(=O)[C@@H]1CSC(=S)N1C(=O)C[C@H]1CC=CC[C@H]1CC(=O)Sc1ccccc1" ?
Out: 17.5 µM (inactive)

###

tested on: CCRF-CEM; experiment: NCI tumour cell line growth inhibition, 48 h
Active and inactive are the calls of the source. No stated cut-off is given here; in the data, active = GI50 up to about 1.1 µM and inactive = higher.
Your answer must be one of the following: active, inactive

- O=[N+]([O-])c1cc([N+](=O)[O-])c(Nn2c3ccccc3c3ccccc32)c([N+](=O)[O-])c1: inactive

In: Name the outcome recorded for CC1(C)CC2C=C(C=O)C3(C=O)CC3(C)C2C1 (stereo unspecified) in the assay.
Out: active

In: Could you do the same for "COc1cc(NCc2ccc3n2-c2ccccc2OC3)cc(OC)c1OC" , please?
Out: inactive

In: Another molecule to look at: O=C(O)C(CCc1ccccc1)N1C(=O)c2ccccc2C1=O (stereo unspecified)
Out: inactive

In: Another molecule: "N#Cc1nc(Nc2ccc(Cl)cc2)sc1N"
Out: inactive

In: # iterate: "Cc1ccc2c(c1)-c1nc(N)c(C#N)c(-c3ccc(Cl)cc3)c1CCS2(=O)=O"
Out: inactive

In: Follow-up item: "C[N+]1(C)CC[N+](C)(C)[BH-]1C(O)O"
Out: inactive

###

system: OVCAR-8; assay: NCI tumour cell line growth inhibition, 48 h
The source made the active and inactive calls. Rule as the data show it: active = GI50 up to about 1.1 µM and inactive = higher.
Would you mind answering with one of these outcomes? active, inactive

- C[C@H]1[C@H]2[C@H](C[C@@]3(C)C4=CC[C@H]5C(C)(C)[C@@H](OC6OCC(O)C(O)C6O)CC[C@@]56C[C@@]46CC[C@]23C)O[C@@]2(O)[C@@H]1OC(C)(C)[C@H]2O (stereo partly drawn): active
- c1ccc(-c2cn3nc(N4CCOCC4)sc3n2)cc1: inactive
- COC(=O)C(Cc1ccccc1)NC(=O)c1ccc(CNC(=S)NCc2cccc(CNC(=S)NCc3ccccc3)c2)cc1 (stereo not drawn): inactive
- O=C1C[C@@H]2[C@@H](C=CC23CC3)N1O: inactive
- CCOC(=O)CSc1nc(-c2ccccc2)c(C#N)c(=O)[nH]1: inactive
- CN1CC(C(=O)C2C(=O)c3ccccc3C2=O)C(=O)C(=O)C(C(=O)C2C(=O)c3ccccc3C2=O)C1 (stereo not drawn): inactive

In: Would you mind telling me which call this test gave "COc1cc(C(=O)C/C(CCC(=O)Nc2ccc(Cl)cc2Cl)=N/NC(=O)C(=O)NN)ccc1O" ?
Out: inactive

In: Another: "CC1=CC(=C(c2ccc(N)c(C)c2)c2ccc(N)c(C)c2)C=CC1=N"
Out: inactive

###

test system: U-251; experiment: NCI tumour cell line growth inhibition, 48 h
Activity calls are given as the source filed them. No stated cut-off is given here; in the data, active = GI50 up to about 1.1 µM and inactive = higher.
Reply using exactly one outcome from active, inactive

* O=c1c2c3c(sc2nc(CN2CCNCC2)n1-c1ccccc1)CCCC3 | inactive
* COC(=O)C1CC(=O)CCC1c1ccccc1 (stereo unspecified) | inactive
* CCC12C=CCN(CCc3c([nH]c4ccccc34)/C=C\1)C2 (stereo unspecified) | inactive

In: Hello, I am checking results. What call was entered for "O=[N+]([O-])c1cc(/C=N/NS(=O)(=O)c2ccc(F)cc2)c(O)c([N+](=O)[O-])c1" ?
Out: inactive

In: Another compound: "CCN(CC)CCN1CCN=c2c3cc(OC)ccc3n3cnc4ccc1c2c43"
Out: active

In: Then C[N+](C)(C)CC1CCC/C1=N/O (stereo unspecified) ?
Out: inactive

###

Recorded GI50, one value per entry.
system: UO-31; assay: NCI tumour cell line growth inhibition, 48 h
Calls of active or inactive are those of the source. No stated cut-off is given here; in the data, active = GI50 up to about 1.1 µM and inactive = higher.

Known results for compounds:
* C[C@]12CCC(=O)C=C1CC[C@@H]1[C@@H]2CC[C@]2(C)C(=O)/C(=C/c3ccc([N+](=O)[O-])cc3)C[C@@H]12 | 3.45 µM (inactive)
* C/C(=C\COc1ccc2ccc(=O)oc2c1)C1=CC(=O)C(C)(C)O1 [GEIPARVARIN] | 6.11 µM (inactive)

In: // GI50 lookup, key: CN1CC(C(=O)C2C(=O)c3ccccc3C2=O)C(=O)C(=O)C(C(=O)C2C(=O)c3ccccc3C2=O)C1 (centres undefined)
Out: > 100 µM (inactive)

In: Could you do the same for "CCN(CC)CCN1CCN=c2c3cc(OC)ccc3n3cnc4ccc1c2c43" , please?
Out: 1.41 µM (inactive)

In: Now give it for O=C1CC2CCN(C(=O)c3ccccc3)CC2CCN1.O=C1CCC2CC(C(=O)c3ccccc3)CCC2CN1 (centres undefined) too.
Out: > 100 µM (inactive)

In: Again, but for CN1C(=O)C(O)CC1c1cccc(C(F)(F)F)c1 (centres undefined)
Out: > 100 µM (inactive)

In: Repeat with "Nc1nc(=O)c(/N=N/c2ccccc2)c(N)[nH]1"
Out: 42.4 µM (inactive)

In: // query: "CCOC(=O)CSc1c(C(=O)OCC)c(=O)n(-c2ccccc2)c(=S)n1-c1ccccc1"
Out: 26.9 µM (inactive)

In: Now consider "CCOC(=O)C1=C(C)Nc2ccccc2S1" and answer again.
Out: > 100 µM (inactive)

###

GI50: recorded values
system: SNB-19; test: NCI tumour cell line growth inhibition, 48 h
The source made the active and inactive calls. No stated cut-off is given here; in the data, active = GI50 up to about 1.1 µM and inactive = higher.

* CCn1c2ccc(C(=O)CCCN3CCCCC3)cc2c2cc(C(=O)CCCN3CCCCC3)ccc21 | 2.58 µM (inactive)
* O=C(CC(C(=O)c1cccs1)c1cccs1)c1ccccc1Cl (stereo not given) | > 100 µM (inactive)
* CCN(CCCl)c1ccc(NC(=O)c2cc(C(=O)NCCN(C)C)cc(C(=O)Nc3ccc(N(CC)CCCl)cc3)c2)cc1 | 1.36 µM (inactive)
* COc1ccc2c(c1)CCc1c-2n(CCN2CCCCC2)c2ccc(OC)cc12 | > 100 µM (inactive)

In: Which GI50 value belongs to "Cc1c(-c2cc(-c3ccccc3)n[nH]c2=O)c2ccccc2n1C" ?
Out: > 100 µM (inactive)

###

tested on: RXF 393; assay: NCI tumour cell line growth inhibition, 48 h
Calls of active or inactive are those of the source. Cut-off read from the data, not from the text of the source: active = GI50 up to about 1.1 µM and inactive = higher.
Outcome measure: GI50

• COc1cc(CNc2ccc(C)cc2)cc(OC)c1OC = 0.301 µM (active)
• Cn1c(=O)c2c(nc(N3CCOCC3)n2CCCNCC(O)c2ccc(O)c(O)c2)n(C)c1=O (centres undefined) = > 100 µM (inactive)
• O=C(Nc1ccccc1)c1cc(S(=O)(=O)Nc2n[nH]c(=O)n2-c2ccccc2)c(S)cc1Cl = > 100 µM (inactive)

In: Please look up its GI50: "O=C1NC(=O)C(C(=O)C(=O)Nc2cccc(C(F)(F)F)c2)C(=O)N1"
Out: > 100 µM (inactive)

In: Now give it for O=C(O)CCC(/N=C(\C(=N\C(CCC(=O)O)C(=O)O)c1ccccc1)c1ccccc1)C(=O)O (centres undefined) too.
Out: > 100 µM (inactive)

###

tested on: HT-29; experiment: NCI tumour cell line growth inhibition, 48 h
Active and inactive are the calls of the source. Rule as the data show it: active = GI50 up to about 1.1 µM and inactive = higher.
Response enum: true (active), false (inactive)

Look over these answered cases.
- CCOC(=O)CN1C(=O)NC(C)(c2ccccc2)C1=O (stereo not given): false
- O=[N+]([O-])c1cc(/C=N/NS(=O)(=O)c2ccc(F)cc2)c(O)c([N+](=O)[O-])c1: false

Please examine the following record next.
In: So what was the verdict on CC1(OCc2ccccc2)C(=O)N2C1NCC2(C)C (stereo not given) in this test?
Out: false

###

test system: K562; assay: NCI tumour cell line growth inhibition, 48 h
Activity calls are given as the source filed them. Rule as the data show it: active = GI50 up to about 1.1 µM and inactive = higher.
I would appreciate it if you answered using one of these outcomes: label 1 = active, label 0 = inactive

Record excerpt, results attached:
• Cc1c2c(c(C)c3c[n+](C)ccc13)Oc1ccccc1O2 = label 0
• O=c1c2ccccc2nc(-c2ccccc2Cl)n1NC1OC(CO)C(O)C(O)C1O (stereo not given) = label 0
• CCn1c2ccc(C(=O)CCCN3CCCCC3)cc2c2cc(C(=O)CCCN3CCCCC3)ccc21 = label 0

In: What did the test return for "N#Cc1ccc(Sc2nc3ccccc3[nH]2)cc1" ?
Out: label 0

In: Then O=C(O)C(CCc1ccccc1)N1C(=O)c2ccccc2C1=O (stereo not given) ?
Out: label 0

In: Moving on to the next compound: "COc1ccc(NC(=O)CC/C(CC(=O)c2ccccc2Cl)=N\Nc2nnc(C)n2N)cc1"
Out: label 0

In: # iterate: "Cc1c2cc(Cl)ccc2n2c(=O)c3ccccc3[nH]c(=O)c12"
Out: label 0

In: One more compound: "CCOP(=O)(/C=C\n1ccc(N)nc1=O)OCC"
Out: label 0
